Assay protocol: physchem
Condition notes: 25 °C, fassif, thermodynamic from solid
Measurement name: solubility (µg/mL)
Express the result in µg/mL but write the number alone.

Examples with their reported solubility follow.
>>> experimental_value("CC(C)(C#Cc1ccc(-c2ccc(Cl)c3c(N(C(=O)N4CCC[C@H]4C(=O)OCOP(=O)(O)O)S(C)(=O)=O)nn(CC(F)(F)F)c23)c([C@H](Cc2cc(F)cc(F)c2)NC(=O)Cn2nc(C(F)(F)F)c3c2C(F)(F)[C@@H]2C[C@H]32)n1)S(C)(=O)=O [Compound 27]")
512
>>> experimental_value("CC(C)(C#Cc1ccc(-c2ccc(Cl)c3c(N(C(=O)[C@H]4C[C@H](C(=O)O)C4)S(C)(=O)=O)nn(CC(F)(F)F)c23)c([C@H](Cc2cc(F)cc(F)c2)NC(=O)Cn2nc(C(F)(F)F)c3c2C(F)(F)[C@@H]2C[C@H]32)n1)S(C)(=O)=O [Compound 13]")
9
>>> experimental_value("CC(C)(C#Cc1ccc(-c2ccc(Cl)c3c(N(C(=O)[C@H]4C[C@H]4C(=O)OCOP(=O)(O)O)S(C)(=O)=O)nn(CC(F)(F)F)c23)c([C@H](Cc2cc(F)cc(F)c2)NC(=O)Cn2nc(C(F)(F)F)c3c2C(F)(F)[C@@H]2C[C@H]32)n1)S(C)(=O)=O [Compound 12]")
2100

Answer with the recorded solubility of CC(C)(C#Cc1ccc(-c2ccc(Cl)c3c(N(C(=O)[C@H]4C[C@@H](C(=O)O)C4)S(C)(=O)=O)nn(CC(F)(F)F)c23)c([C@H](Cc2cc(F)cc(F)c2)NC(=O)Cn2nc(C(F)(F)F)c3c2C(F)(F)[C@@H]2C[C@H]32)n1)S(C)(=O)=O [Compound 14] only.
9

* * *

Assay protocol: Kinetic solubility analysis (CLND: total chemiluminescent nitrogen determination)
Condition notes: 1×PBS buffer (pH 7.4), 1.0% DMSO, 24-hour incubation at ambient temperature, maximum theoretical concentration 100 μM
Measured pH 7 solubility, listed per entry.
Kindly answer with a numeric value in μM, unit omitted.

# annotated cases, reported pH 7 solubility shown
>>> experimental_value("CC(C)(C#Cc1ccc(-c2ccc(Cl)c3c(N(C(=O)c4ccccc4CN(CCC(=O)O)C(=O)OCOP(=O)(O)O)S(C)(=O)=O)nn(CC(F)(F)F)c23)c([C@H](Cc2cc(F)cc(F)c2)NC(=O)Cn2nc(C(F)(F)F)c3c2C(F)(F)[C@@H]2C[C@H]32)n1)S(C)(=O)=O [Compound 21]")
100
>>> experimental_value("CC(C)(C#Cc1ccc(-c2ccc(Cl)c3c(N(C(=O)[C@H]4C[C@H](NC(=N)N)C4)S(C)(=O)=O)nn(CC(F)(F)F)c23)c([C@H](Cc2cc(F)cc(F)c2)NC(=O)Cn2nc(C(F)(F)F)c3c2C(F)(F)[C@@H]2C[C@H]32)n1)S(C)(=O)=O [Compound 9]")
2
>>> experimental_value("CC(C)(C#Cc1ccc(-c2ccc(Cl)c3c(N(C(=O)N4CCC[C@H]4CNC(=O)OCOP(=O)(O)O)S(C)(=O)=O)nn(CC(F)(F)F)c23)c([C@H](Cc2cc(F)cc(F)c2)NC(=O)Cn2nc(C(F)(F)F)c3c2C(F)(F)[C@@H]2C[C@H]32)n1)S(C)(=O)=O [Compound 32]")
100

Now consider a different molecule.
# return recorded pH 7 solubility for entry CC(C)(C#Cc1ccc(-c2ccc(Cl)c3c(N(C(=O)N4CCC[C@H]4CN(CCC(=O)O)C(=O)OCOP(=O)(O)O)S(C)(=O)=O)nn(CC(F)(F)F)c23)c([C@H](Cc2cc(F)cc(F)c2)NC(=O)Cn2nc(C(F)(F)F)c3c2C(F)(F)[C@@H]2C[C@H]32)n1)S(C)(=O)=O [Compound 34]
100

* * *

Quick reference: pH 7 solubility of the listed items.
Assay protocol: Kinetic solubility analysis (CLND: total chemiluminescent nitrogen determination)
Condition notes: 1×PBS buffer (pH 7.4), 1.0% DMSO, 24-hour incubation at ambient temperature, maximum theoretical concentration 100 μM
Give the value, in units of μM, as a plain number.

>>> experimental_value("CC(C)(C#Cc1ccc(-c2ccc(Cl)c3c(N(C(=O)C4(C(=O)O)CC4)S(C)(=O)=O)nn(CC(F)(F)F)c23)c([C@H](Cc2cc(F)cc(F)c2)NC(=O)Cn2nc(C(F)(F)F)c3c2C(F)(F)[C@@H]2C[C@H]32)n1)S(C)(=O)=O")
8

--- query ---
Give a short answer stating reported pH 7 solubility for `CC(C)(C#Cc1ccc(-c2ccc(Cl)c3c(N(C(=O)[C@H]4C[C@@H](C(=O)O)C4)S(C)(=O)=O)nn(CC(F)(F)F)c23)c([C@H](Cc2cc(F)cc(F)c2)NC(=O)Cn2nc(C(F)(F)F)c3c2C(F)(F)[C@@H]2C[C@H]32)n1)S(C)(=O)=O` .
8
